All figures here come from paper PMC11111035.

SYSTEM NAME: porcine pancreatic lipase (Sus scrofa, UniProt P00591)
Sequence (P00591 whole entry): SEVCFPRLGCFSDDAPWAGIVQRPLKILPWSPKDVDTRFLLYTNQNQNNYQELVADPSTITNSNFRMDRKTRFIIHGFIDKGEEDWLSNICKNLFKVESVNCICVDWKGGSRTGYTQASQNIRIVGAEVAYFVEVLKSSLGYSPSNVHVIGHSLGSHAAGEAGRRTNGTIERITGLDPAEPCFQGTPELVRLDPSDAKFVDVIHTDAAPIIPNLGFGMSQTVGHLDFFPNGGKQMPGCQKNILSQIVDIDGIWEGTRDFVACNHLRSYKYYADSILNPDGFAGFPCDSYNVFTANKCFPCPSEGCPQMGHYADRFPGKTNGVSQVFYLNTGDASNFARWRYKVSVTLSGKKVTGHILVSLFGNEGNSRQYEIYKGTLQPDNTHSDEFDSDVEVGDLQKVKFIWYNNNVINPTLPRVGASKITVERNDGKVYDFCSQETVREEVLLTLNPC
EXPERIMENTAL PROTOCOL: Lipase inhibitory activity (LI), pNPP substrate
Type: biochemical
PROTOCOL CONDITIONS: synthetic peptide, pH 7.0, 37°C, 30 min
Ends that are not written are not given here.
ENDPOINT: pIC50
Remember the convention: pIC50 equals -log10 of concentration in molar.

Q: // query pIC50 value for entry GRSPDTHSG
Ans: 3.59
